- Target Under Test: T1, 4H1842-AA
- T1 chain: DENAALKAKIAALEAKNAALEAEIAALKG
- Protocol Text: two-hybrid library CCmax;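 note: natural log of median RNA to DNA barcode read ratio; higher means stronger binding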
- Settings: mean of both orientations
Assay Metric: interaction score

Some entries whose results are on file:
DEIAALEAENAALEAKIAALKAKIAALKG [4H174-AA]
-0.689
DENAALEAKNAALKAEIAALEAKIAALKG [4H1478-AA]
-1.06
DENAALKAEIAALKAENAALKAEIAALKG [4H1626-AA]
-1.57

Lab book: interaction score of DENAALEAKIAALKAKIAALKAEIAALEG [4H1385-AA] noted as -1.47

Attribution: paper PMC10397247
